Values were extracted from ChEMBL document CHEMBL1201862.

# Test system: HL-60
# TEST_DETAILS: NCI tumour cell line growth inhibition, 48 h
Calls of active or inactive are those of the source. No stated cut-off is given here; in the data, active = GI50 up to about 1.1 µM and inactive = higher.
Recorded GI50 for the following molecules

Given the entry O=C(NO)NCCCl , report its measured GI50.
> 100 µM (inactive)

What does the data say about its GI50? Entry: CC(C)C(=O)C(C)(C)CCc1ccccn1
> 100 µM (inactive)

Can you look up the measured GI50 of O=C(O)C(Oc1nc(S)nc(S)n1)(c1ccc(Cl)cc1)c1ccc(Cl)cc1 for me?
> 100 µM (inactive)

Recorded GI50 for CC(=O)/C(=N\O)C(=O)NCc1ccccc1 , please?
> 100 µM (inactive)

Find the recorded GI50 belonging to COCCOCOc1ccc(OCc2ccccc2)cc1 and report it.
22.5 µM (inactive)

Others:
Would you mind telling me what GI50 value was observed for COc1ccc(C(C)NNC(=O)c2ccncc2)cc1OC (stereo not drawn) ?
> 100 µM (inactive)

Any idea what its GI50 is? The molecule is NC(CCSCCF)C(=O)O (stereo not drawn)
> 100 µM (inactive)

Which value of GI50 has been reported for c1ccc2c(c1)nc1n2C2CCC(C2)N1 (stereo not drawn) in the records?
> 10 µM (inactive)

###

# Test system: HOP-18
# TEST_DETAILS: NCI tumour cell line growth inhibition, 48 h
The source made the active and inactive calls. Cut-off read from the data, not from the text of the source: active = GI50 up to about 1.1 µM and inactive = higher.
QUANTITY_MEASURED: GI50

Example entries begin here.
// GI50 lookup, key: N#CC(C#N)=C(N)/C(C#N)=C\c1ccnc2ccccc12
> 100 µM (inactive)

Which GI50 value is on record for Oc1cc(-c2cccc(Cl)c2)nc2cc3c(cc12)OCO3 ?
1.5 µM (inactive)

// GI50 lookup, key: C(=C\C(Sc1ccccc1)c1ccccc1)/NNC1=NN=C(c2ccccc2)C(c2ccccc2)N1 (centres undefined)
> 100 µM (inactive)

Next item in the queue.
// lookup GI50 for CSC(=N)N1N=C2c3ccccc3CC[C@@H]2[C@@H]1c1ccccc1
18.5 µM (inactive)

###

# Test system: SNB-19
# TEST_DETAILS: NCI tumour cell line growth inhibition, 48 h
The source made the active and inactive calls. No stated cut-off is given here; in the data, active = GI50 up to about 1.1 µM and inactive = higher.
QUANTITY_MEASURED: GI50

Example entries and their recorded answers appear below.
For COc1cc(-c2cc(=O)c3ccccc3o2)ccc1N , what is its reported GI50?
43.4 µM (inactive)

Need GI50, item Nc1nc2[nH]cc(CCc3ccc(C(=O)N[C@@H](CCC(=O)O)C(=O)O)cc3)c2c(=O)[nH]1
> 100 µM (inactive)

Please report the recorded GI50 for C#C[C@]1(O)CCCC2=CC(=O)CC[C@@]21C .
> 100 µM (inactive)

Record request: GI50 value, item Cc1sc2nc3n(c(=O)c2c1C)N=CN(c1ccccc1)C3
35.5 µM (inactive)

New cases:
Any idea what GI50 was measured for CCCC1c2c(ccc3ccccc23)Oc2ccc3ccccc3c21 ?
> 100 µM (inactive)

Consider the compound NNC(=O)C(=O)N/N=C1/CCCC1C(=O)CCC(=O)Nc1ccc(Cl)cc1 (stereo unspecified) and give its measured GI50.
> 100 µM (inactive)

###

# Tested on: T47D
# TEST_DETAILS: NCI tumour cell line growth inhibition, 48 h
Calls of active or inactive are those of the source. No stated cut-off is given here; in the data, active = GI50 up to about 1.1 µM and inactive = higher.
Recorded GI50 by entry

Solved cases below.
# lookup: GI50 of OC1=C2c3ccccc3NC2Oc2cc(F)ccc21 (stereo unspecified)
19.2 µM (inactive)

What GI50 value was documented for this compound, Cc1ccc(NC(=O)c2ccc(OP(=O)(O)Nc3ccc(C)cc3)cc2)cc1 ?
> 100 µM (inactive)

So what's the measured GI50 for this one? NCCSC1(O)C(=O)c2ccccc2-c2ccccc21 (stereo unspecified)
2.1 µM (inactive)

GI50 for CCSc1nnc(Sc2c3ccccc3nc3ccccc23)s1 ?
4.22 µM (inactive)

Please report the recorded GI50 for CC(C)C(=O)C(C)(C)CCc1ccccn1 .
> 100 µM (inactive)

Let's switch to this compound now.
Requested read-out: GI50. Entry: CC(C)NC(=O)OCc1c(COC(=O)NC(C)C)n(C)c2c1ccc1cc(Cl)c(Cl)cc12
5.82 µM (inactive)
